SUBJECT_OF_TEST: Potassium voltage-gated channel subfamily KQT member 1 (Homo sapiens)
PROTOCOL_SUMMARY: KCNQ1 potassium channel potentiators, confirmation, FluxOR thallium flux, CHO cells, duplicates (AID 493007);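 as to potentiation: 0% = buffer-only wells and 100% = R-L3 activator control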
ASSAY_SETUP: KCNQ1 cell line, FluxOR thallium flux fluorescence, at 10 µM; stronger effect = higher value, % of reference activator effect, buffer zero
Active and inactive are the calls of the source.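 The calls were made as follows: active = potentiation averaged over duplicate wells exceeding buffer-only control mean by more than 3 SD; inactive = the rest.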

# COMPOUND, potentiation
records = [
    ("CCOC(=O)CN1C(=O)N(CC)C(C)=C(C(=O)OC)[C@@H]1c1ccccc1", "inactive"),
    ("Cc1ccc(/C=C/C(=O)C2C(=O)c3ccccc3C2=O)cc1", "58.5% (active)"),
    ("CCOc1ccc2nc(N3C(=O)/C(=C/c4ccc(Cl)cc4)NC3=S)sc2c1", "143% (active)"),
    ("O=c1c2cc(Cl)cc(Cl)c2nc2n1CCC2", "inactive"),
    ("OCCN1CCN(c2ncnc3c2sc2nc(N4CCOCC4)c4c(c23)CCC4)CC1", "19% (active)"),
    ("Cc1ccc(C(=O)Nc2nnn(C)n2)cc1", "inactive"),
    ("CC(C)[N+]1(C)[C@@H]2CC[C@H]1CC(OC(=O)C(CO)c1ccccc1)C2 (stereo partly specified)", "inactive"),
    ("Cn1nnnc1SCC(=O)NCc1ccc2c(c1)OCO2", "inactive"),
    ("S=c1nc(-c2ccc(Br)cc2)[nH]c2ccccc12", "188% (active)"),
    ("CCOC(=O)Cn1c(=N)n(CCOc2ccc(Br)cc2)c2ccccc21", "inactive"),
    ("O=C(NC(=S)N1CCCC1)c1ccc(Cl)cc1", "inactive"),
]

* * *

SUBJECT_OF_TEST: Short transient receptor potential channel 4 (Mus musculus)
PROTOCOL_SUMMARY: calcium flux activators in TRPC4/5HT1a cells, counter-screen for TRPC4 activator project, cell-based, second counter screen, HEK293 TRPC4/5HT1a, Fluo-4 (AID 434977)
ASSAY_SETUP: Fluo-4 calcium flux, at 10 µM
The source made the active and inactive calls.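 How the source made its calls: active means calcium signal rise above buffer-control mean plus 5 SD in both duplicates, and also a hit in the primary screen; inactive means the rest.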
Labels: active, inactive

# MOLECULE, CATEGORY_LABEL
rows = [
    ("Cc1ccc2[nH]c3c(=O)n(CCc4cnc[nH]4)cnc3c2c1", "active"),
    ("COc1ccc(C(CNC(=O)c2ccc(S(=O)(=O)N(C)C)cc2)N(C)C)cc1 (stereo not drawn)", "inactive"),
    ("Cc1onc(-c2ccccc2)c1C(=O)NC(=S)NNC(=O)c1ccco1", "active"),
]

* * *

System: transient receptor potential cation channel C4 beta (TRPC4), mouse
PROTOCOL_SUMMARY: activators of mouse TRPC4 channel, confirmation, cell-based, second round, Fluo4, HEK293 TRPC4beta/mu-opioid, 1 µM (AID 2461)
ASSAY_SETUP: Fluo4 calcium fluorescence, at 1 µM
The source made the active and inactive calls.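 How the source made its calls: active means primary screen active and over 50% activation in each of two duplicate runs; inactive means the rest.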
Labels: active, inactive

# SMILES_STR, CATEGORY_LABEL
measured = [
    ("OCCN1CCN(Cc2cc(Br)cc(Br)c2O)CC1", "active"),
    ("Cc1ccccc1OCC(=O)NNC(=S)NC(=O)c1ccco1", "inactive"),
    ("OCCNCCSc1ccc(Cl)cc1", "inactive"),
    ("O=C(NCCc1ccccn1)c1ccc(OC2CCN(CCc3ccccc3)CC2)cc1", "inactive"),
    ("COc1ccccc1NS(=O)(=O)c1cccc(C(=O)NC2CCN(Cc3ccccc3)CC2)c1", "inactive"),
]

# credit: PubChem BioAssay
